Where these numbers come from: paper PMC9482650

target: MAGI3_2, Q5TCQ9; experiment: holdup assay; design: key: below the threshold = too weak to quantify, mostly under pKd 3.1 to 4; conditions: plain residues with an end cap or a label only (N-terminal biotin on a linker: ado-ado)
Sequence (Q5TCQ9 398-503): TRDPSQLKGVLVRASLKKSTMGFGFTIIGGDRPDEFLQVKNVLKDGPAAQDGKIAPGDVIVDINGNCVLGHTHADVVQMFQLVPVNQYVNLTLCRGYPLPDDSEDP
MEASUREMENT TYPE: pKd
Give the figure by itself; no unit, no explanation.

q: Find the recorded pKd belonging to YYKRPVQEWV [MMP24, Q9Y5R2] and report it.
a: 3.85

q: Given KKMPSIESDV [GRIN2A, Q12879] , state its recorded pKd.
a: 4.32

q: Can you share its pKd? I mean this binder: SAKVRTVTSV [RASL11B, Q9BPW5]
a: 5.74

q: Request the reported pKd associated with QGPVETESVV [SLC45A4, Q5BKX6]
a: 4.47

q: Entry EVEEFPETSV [TRPV3, Q8NET8] : reported pKd = ?
a: 4.27

q: Value lookup for pKd; key = TACCHSETVV [TGFA, P01135]
a: 5.27

q: Look up pKd for this binder: QSLNRMEYIV [JAG1, P78504]
a: 4.73

q: Consider the binder shown here: VKPQVSESKL [ACOT8, O14734] What is its recorded pKd?
a: 3.59
